TEST: Stability in human plasma assessed as half life by RP-HPLC analysis
Type: ADME, cell-free
MEASURED_PARAMETER: half-life (min)

| MOLECULE | VAL |
| --- | --- |
| CCc1c2c(nc3ccc(OCc4ccc(NC(=O)[C@H](CCCNC(N)=O)NC(=O)[C@@H](NC(=O)CCCCN5C(=O)CC(SCCOCCOCCOc6cc(O)c(C(=O)CCc7ccc(O)cc7)c(O[C@@H]7O[C@H](CO)[C@@H](O)[C@H](O)[C@H]7O)c6)C5=O)C(C)C)cc4)cc13)-c1cc3c(c(=O)n1C2)COC(=O)[C@]3(O)CC (some centres undefined) | 2160 |
| CCc1c2c(nc3ccc(OC(=O)OCCSSCCOCCOCCOc4cc(O)c(C(=O)CCc5ccc(O)cc5)c(O)c4)cc13)-c1cc3c(c(=O)n1C2)COC(=O)[C@]3(O)CC | 50 |
| CCc1c2c(nc3ccc(OCc4ccc(NC(=O)[C@H](CCCNC(N)=O)NC(=O)[C@@H](NC(=O)CCCCN5C(=O)CC(SCCOCCOCCOc6cc(O)c(C(=O)CCc7ccc(O)cc7)c(O)c6)C5=O)C(C)C)cc4)cc13)-c1cc3c(c(=O)n1C2)COC(=O)[C@]3(O)CC (some centres undefined) | 2160 |
| CCc1c2c(nc3ccc(OC(=O)OCCSSCCOCCOCCOc4cc(O)c(C(=O)CCc5ccc(O)cc5)c(O[C@@H]5O[C@H](CO)[C@@H](O)[C@H](O)[C@H]5O)c4)cc13)-c1cc3c(c(=O)n1C2)COC(=O)[C@]3(O)CC | 20 |
